System: OVCAR-3
Test: NCI tumour cell line growth inhibition, 48 h
Active and inactive are the calls of the source. Rule as the data show it: active = GI50 up to about 1.1 µM and inactive = higher.
Listed next: entries and their corresponding GI50.

Recorded results for 10 compounds are shown here.
* Cc1cnc2cc(Cl)ccc2c1SCC(=O)O | > 100 µM (inactive)
* Cc1noc2cccc(O)c12 | > 100 µM (inactive)
* C[C@]12CC[C@H]3[C@@H](CC=C4C[C@@H](O)CC[C@@]43C)[C@@H]1CC[C@@H]2N(CCO)CCO | 34.8 µM (inactive)
* O=c1c2ccc(Cl)cc2oc2c(CNc3ccc(S(=O)(=O)Nc4ncccn4)cc3)cccc12 | > 100 µM (inactive)
* CC1(Sc2ccccc2)CN(Cc2ccccc2)C1=O (stereo not given) | > 100 µM (inactive)
* CC(C)(C)C(=O)CC(=O)C(C)(C)C.CC(C)(C)C(=O)CC(=O)C(C)(C)C.[SiH4] | 2.07 µM (inactive)
* CC[C@@]1(O)C(=O)OCc2c1cc1n(c2=O)Cc2c-1nc1ccccc1c2/C=N\NC(=O)C[n+]1ccccc1 | 7.78 µM (inactive)
* O=C(O)c1ccc(-c2nc3cc(Cl)ccc3[nH]2)cc1 | > 100 µM (inactive)
* COC(=O)c1ccccc1/C=C1\Cc2cc(C)c(C)cc2C1=O | > 100 µM (inactive)
* O=c1[nH]c2nc3ccccc3c(=O)n2/c1=C/c1cccs1 | > 100 µM (inactive)

Query: Item under review: `O=C(O)c1ccc(Nc2ccnc3cc(Cl)ccc23)cc1O` . Reported GI50?
Reply: > 100 µM (inactive)

Query: Also need `O=C(/C=C/c1ccc(O)cc1)c1cc(O)cc(O)c1` , thanks.
Reply: 15.3 µM (inactive)

Query: Also need Cc1ccc(SC2C(=O)C3CC(OCc4ccccc4)C2(C)C3(C)C)cc1 (stereo not given) , thanks.
Reply: > 100 µM (inactive)

Query: Also need COc1ccc([C@@]23Oc4cc(OC)cc(OC)c4[C@]2(O)[C@H](O)[C@H](C(=O)N(C)C)[C@H]3c2ccccc2)cc1 [ROCAGLAMIDE] , thanks.
Reply: 0.056 µM (active)

Query: Also need `COc1ccc(C(OC(=O)[C@H](O[Si](C)(C)C(C)(C)C)[C@@H](NC(=O)c2ccccc2)c2ccccc2)c2ccc(OC)cc2)cc1` , thanks.
Reply: > 100 µM (inactive)

---

Test system: RXF 631
Assay: NCI tumour cell line growth inhibition, 48 h
Activity calls are given as the source filed them. Rule as the data show it: active = GI50 up to about 1.1 µM and inactive = higher.
EXPERIMENTAL_READOUT: GI50

Recorded results for 6 compounds are shown here.
- COc1cccc2c1C(=O)c1c(O)c3c(c(O)c1C2=O)C[C@@](O)(/C(C)=N\O)C[C@@H]3OC1CC(N)C(O)C(C)O1 (stereo not given in full): 2.24 µM (inactive)
- Brc1ccccc2cc(-c3ccccc3)nc1-2: 11.9 µM (inactive)
- Cc1ccc(S(=O)(=O)NC(=O)C#CCOC2CCCCO2)cc1 (stereo not given): > 100 µM (inactive)
- COc1cc(Nc2cnc3cc(C(F)(F)F)ccc3n2)cc(OC)c1OC: > 100 µM (inactive)
- O=C(O)CSc1nnc(Cc2ccccc2)[nH]1: > 100 µM (inactive)
- N#C/C(=C\c1cccc(O)c1O)C(N)=O: 48.8 µM (inactive)

Query: Item under review: `O=c1[nH]c(-c2ccc(-c3nc4cc([N+](=O)[O-])ccc4c(=O)[nH]3)cc2)nc2cc([N+](=O)[O-])ccc12` . Reported GI50?
Reply: > 100 µM (inactive)

Query: Also need Cc1cccc2c1NC(c1c(C)[nH]c3ccccc13)C2 (stereo not given) , thanks.
Reply: > 100 µM (inactive)

Query: Also need `COc1c(I)c(OC)c2c(c1I)O[C@@H]1OCC[C@H]21` , thanks.
Reply: 29.9 µM (inactive)

Query: Also need CC1=NN(C(=O)CC(=O)Nc2ccccc2)C(=O)C1/N=N/c1ccc(S(N)(=O)=O)cc1 (stereo not given) , thanks.
Reply: 91.6 µM (inactive)

---

Test system: EKVX
Experiment: NCI tumour cell line growth inhibition, 48 h
Calls of active or inactive are those of the source. Cut-off read from the data, not from the text of the source: active = GI50 up to about 1.1 µM and inactive = higher.
Listed next: entries and their corresponding GI50.

Recorded results for 3 compounds are shown here.
* CNC(=O)OCC1=C(COC(=O)NC)C(C)N(c2ccccc2)C1 (centres undefined) | 46.1 µM (inactive)
* O=C(/C=C/c1ccc(Cl)cc1)c1nc2ccccc2[nH]1 | 25.7 µM (inactive)
* COC(=O)C(NC(=O)CSc1nnc(COc2ccc(Cl)cc2)n1-c1ccccc1)C(C)C (centres undefined) | 23 µM (inactive)

Okay, next one:
Query: Hi! What's the reported GI50 for `O=C(CSCC(=O)N/N=C/c1ccc2c(c1)OCO2)N/N=C/c1ccc2c(c1)OCO2` on EKVX?
Reply: 55.8 µM (inactive)

---

Tested on: SK-OV-3
Experiment: NCI tumour cell line growth inhibition, 48 h
Activity calls are given as the source filed them. No stated cut-off is given here; in the data, active = GI50 up to about 1.1 µM and inactive = higher.
Lab note: assign the record to one of active, inactive

Use the examples below as a reference point.
* C[N+](C)=c1nc(N2CCc3ccccc3C2)ss1.[O-][Cl+3]([O-])([O-])[O-] | inactive
* O=[N+]([O-])/C(C(Cl)=C(Cl)Cl)=C(\Nc1cccc2cccnc12)Sc1ccccc1 | inactive
* Cc1ccc(/C=N/NC2=NCCN2)s1 | inactive
* O=C(O)c1cccc(S(=O)(=O)NN2C(=O)CSC2c2ccccc2)c1 (centres undefined) | inactive
* O=C(Nc1ccc(Cl)cc1)c1cc(S(=O)(=O)Nc2n[nH]c(Nc3ccc4ccccc4c3)n2)c(SSc2cc(Cl)c(C(=O)Nc3ccc(Cl)cc3)cc2S(=O)(=O)Nc2n[nH]c(Nc3ccc4ccccc4c3)n2)cc1Cl | inactive

Query: Write down the call the test reported for this compound. Item: `O=C(CSc1nc(-c2ccccc2)c(-c2ccccc2)[nH]1)N/N=C/c1ccc(O)cc1`
Reply: inactive

Query: Also need `CC(=O)O[C@H]1C[C@]2(O)[C@@H]3CC[C@@H]4C[C@@H](O)CC[C@]4(C)[C@H]3CC[C@]2(C)[C@H]1C1=CC(=O)OC1` , thanks.
Reply: active

Query: Also need CC(=O)[C@H]1[C@H](O)C[C@@]2(C)[C@@H]3CCc4cc(O)c(OC5OC(CO)C(O)C(O)C5O)cc4C3(C)C(=O)C[C@]12C (some centres undefined) , thanks.
Reply: inactive

Query: Also need `Cc1ccc(-c2nnc(-c3nn(-c4ccccc4)c4nc5ccccc5nc34)o2)cc1` , thanks.
Reply: inactive

---

System: SK-OV-3
Assay: NCI tumour cell line growth inhibition, 48 h
Active and inactive are the calls of the source. No stated cut-off is given here; in the data, active = GI50 up to about 1.1 µM and inactive = higher.
Lab note: assign the record to one of TRUE for active, FALSE for inactive

Use the examples below as a reference point.
* COc1cccc(-c2cc(O)c3cc(C)cnc3n2)c1 | TRUE
* Nc1nnc(N)n1NC(=O)C(=O)Nc1ccc([N+](=O)[O-])cc1 | FALSE
* CC(NC(=O)c1ccc(Cl)c(Cl)c1)c1ccc(-c2ccccc2)cc1 (centres undefined) | FALSE
* CC1OC(OC2C(CO)OC(O[C@H]3CC[C@@]4(C)C(=CC[C@H]5[C@@H]6C[C@@H]7O[C@](O)(CC[C@H](C)COC8OC(CO)C(O)C(O)C8O)[C@@H](C)[C@@H]7[C@@]6(C)CC[C@@H]54)C3)C(OC3OC(C)C(O)C(O)C3O)C2O)C(O)C(O)C1O (some centres undefined) | FALSE
* CC(=O)N1N=C(c2c(O)ccc3ccccc23)CC1C(=O)c1ccco1 (centres undefined) | FALSE
* Cc1nc(C)c(C(=O)NNC(N)=S)cc1C(=O)NNC(N)=S | FALSE
* Oc1ccccc1-c1nn2c(CCCCCCCCc3nnc4sc(-c5ccccc5O)nn34)nnc2s1 | FALSE
* COc1ccc(Sc2ccccc2N)cc1 | FALSE

Now look at this one.
Query: Write down the call the test reported for this compound. Item: `COc1ccc(/C=C2\CCCCCC2=O)cc1`
Reply: FALSE

---

Tested on: SW-620
Assay: NCI tumour cell line growth inhibition, 48 h
Active and inactive are the calls of the source. No stated cut-off is given here; in the data, active = GI50 up to about 1.1 µM and inactive = higher.
EXPERIMENTAL_READOUT: GI50

* O=C(/C=C/c1ccc(Cl)cc1)c1nc2ccccc2[nH]1 | 13.4 µM (inactive)

Query: Item under review: `COc1c(I)c(OC)c2c(c1I)O[C@@H]1OCC[C@H]21` . Reported GI50?
Reply: 35 µM (inactive)

Query: Also need Cc1ccc(S(=O)(=O)NN=C2C(C)CC(C(C)(C)C)CC2C)cc1 (stereo unspecified) , thanks.
Reply: 20 µM (inactive)

---

Test system: CAKI-1
Test: NCI tumour cell line growth inhibition, 48 h
Calls of active or inactive are those of the source. No stated cut-off is given here; in the data, active = GI50 up to about 1.1 µM and inactive = higher.
Listed next: entries and their corresponding GI50.

• CCOC(=O)c1nc2ccccc2nc1Nc1ccc(OC)c(OC)c1 = > 100 µM (inactive)
• NC1=NN(c2ccccc2)C2(O)c3ccncc3C3=NN(c4ccccc4)C(=O)C132 (stereo unspecified) = > 100 µM (inactive)
• NC(=O)C1(c2ccccc2)Nc2ccccc2S1 (stereo unspecified) = > 100 µM (inactive)
• COc1cc(C2c3cc4c(cc3[C@@H](Nc3cccc(C(C)=O)c3)C3COC(=O)[C@H]23)OCO4)cc(OC)c1O (stereo partly specified) = 0.108 µM (active)
• COC12OCCN(C)C1=CC(=O)C1(C)N=NCC12 (stereo unspecified) = > 100 µM (inactive)

Okay, next one:
Query: Item under review: `N=c1oc2cc(O)ccc2cc1C(=O)NCc1ccccc1` . Reported GI50?
Reply: 20.3 µM (inactive)
